Parameter: normalised response. Scope: all listed entries.
- System: MDA-MB-453
- measurement-description: normalised response (% of control), CellTiter-Glo; higher = more viable cells (100 = DMSO, 0 = benzethonium chloride kill control)
- settings: incubation time: 72 h
Give a bare numeral; the unit % is implied.

# compound, normalised response / %
rows = [
    ("COC(=O)C[C@](O)(CCCC(C)(C)O)C(=O)O[C@@H]1C(OC)=C[C@]23CCCN2CCc2cc4c(cc2[C@H]13)OCO4 [Omacetaxine] (10000 nM)", 24.6),
    ("COC1=CC(c2cc3ccccc3[nH]2)=N/C1=C\\c1[nH]c(C)cc1C [Obatoclax] (10000 nM)", 57.5),
    ("COc1ncc(-c2ccc3nccc(-c4ccnnc4)c3c2)cc1NS(=O)(=O)c1ccc(F)cc1F (1000 nM)", 7.5),
]

Attention now turns to another entry.
Dear colleague, I am looking for the recorded normalised response of the following compound: O=c1[nH]cc(F)c(=O)[nH]1 [Fluorouracil] (10000 nM)
94.8
